# system name: 5-hydroxytryptamine receptor 2C (Homo sapiens, UniProt P28335)
# assay: Inhibition of human 5-HT2C by intracellular Ca2+ luminescence assay
# Assay type: functional, cell-based
pIC50: −log10 of the molar value.
observation type: pIC50

Param item = CCNC(=O)C[C@@H]1N=C(c2ccc(Cl)cc2)c2cc(OC)ccc2-n2c(C)nnc21 [MOLIBRESIB] ; retrieve measured pIC50. < 4.40

---

# system name: Aurora kinase B (Homo sapiens, UniProt Q96GD4)
# Sequence (Q96GD4 whole entry): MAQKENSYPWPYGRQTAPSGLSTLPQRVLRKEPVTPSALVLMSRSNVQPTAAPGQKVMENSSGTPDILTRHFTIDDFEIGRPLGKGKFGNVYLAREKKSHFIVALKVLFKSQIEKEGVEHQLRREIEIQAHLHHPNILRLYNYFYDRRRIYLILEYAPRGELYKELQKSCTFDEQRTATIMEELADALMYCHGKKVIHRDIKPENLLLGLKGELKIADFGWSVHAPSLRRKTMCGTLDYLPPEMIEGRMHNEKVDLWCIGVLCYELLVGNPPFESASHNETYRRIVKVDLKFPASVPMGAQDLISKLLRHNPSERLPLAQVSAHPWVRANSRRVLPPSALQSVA
pIC50: −log10 of the molar value.
observation type: pIC50

Param item = `CCNC(=O)C[C@@H]1N=C(c2ccc(Cl)cc2)c2cc(OC)ccc2-n2c(C)nnc21` ; retrieve measured pIC50. < 4.60

---

# assay: Half life in NOD:SCID mouse at 30 mg/kg, ip administered for 24 hrs by LC-MS/MS analysis
# Type: ADME, organism-based
# assay setup: in vivo
observation type: half-life (h)
Numbers only, in h.

Param item = `Cc1sc2c(c1C)C(c1ccc(Cl)cc1)=N[C@@H](CC(=O)OC(C)(C)C)c1nnc(C)n1-2` ; retrieve measured half-life. 2.3

---

# system name: Beta-2 adrenergic receptor (Homo sapiens, UniProt P07550)
pIC50: −log10 of the molar value.
observation type: pIC50

Reported pIC50 for Beta-2 adrenergic receptor (Homo sapiens, UniProt P07550), given CCNC(=O)C[C@@H]1N=C(c2ccc(Cl)cc2)c2cc(OC)ccc2-n2c(C)nnc21 [MOLIBRESIB] ? < 4.50

---

# system name: Tyrosine-protein kinase Lck (Homo sapiens)
observation type: IC50

Param item = `CCNC(=O)C[C@@H]1N=C(c2ccc(Cl)cc2)c2cc(OC)ccc2-n2c(C)nnc21` ; retrieve measured IC50. > 25 µM

---

# system name: Mu-type opioid receptor (Homo sapiens)
# assay: Inhibition of human OPRM1 in presence of GTPgS
observation type: IC50

Param item = CCNC(=O)C[C@@H]1N=C(c2ccc(Cl)cc2)c2cc(OC)ccc2-n2c(C)nnc21 [MOLIBRESIB] ; retrieve measured IC50. > 100 µM

---

# system name: UniProt:P11229
# assay: Inhibition of human M1 by intracellular Ca2+ fluorescence assay
observation type: IC50

Param item = `CCNC(=O)C[C@@H]1N=C(c2ccc(Cl)cc2)c2cc(OC)ccc2-n2c(C)nnc21` ; retrieve measured IC50. > 15.1 µM

---

# system name: Serotonin 3 (5-HT3) receptor
# assay: Inhibition of human 5-HT3 by intracellular Ca2+ fluorescence assay
observation type: IC50

Reported IC50 for Serotonin 3 (5-HT3) receptor, given CCNC(=O)C[C@@H]1N=C(c2ccc(Cl)cc2)c2cc(OC)ccc2-n2c(C)nnc21 [MOLIBRESIB] ? > 50 µM

---

# assay: Cmax in NOD:SCID mouse at 30 mg/kg, ip administered for 36 hrs by LC-MS/MS analysis
# Type: ADME, organism-based
# assay setup: in vivo
observation type: Cmax (µM)
Numbers only, in µM.

Param item = `CCNC(=O)C[C@@H]1N=C(c2ccc(Cl)cc2)c2cc(OC)ccc2-n2c(C)nnc21` ; retrieve measured Cmax. 21.9

---

# system name: UniProt:P28222
# Sequence (P28222 whole entry): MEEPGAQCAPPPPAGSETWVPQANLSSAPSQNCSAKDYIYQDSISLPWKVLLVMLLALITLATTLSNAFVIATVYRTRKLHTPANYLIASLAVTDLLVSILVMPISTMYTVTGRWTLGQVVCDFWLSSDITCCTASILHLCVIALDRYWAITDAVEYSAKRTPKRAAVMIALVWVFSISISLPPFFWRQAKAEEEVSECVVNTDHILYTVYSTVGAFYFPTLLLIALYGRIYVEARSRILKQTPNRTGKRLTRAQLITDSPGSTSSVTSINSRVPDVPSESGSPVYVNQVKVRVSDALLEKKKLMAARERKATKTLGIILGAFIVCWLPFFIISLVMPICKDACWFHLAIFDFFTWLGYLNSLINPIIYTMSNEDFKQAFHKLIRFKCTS
# assay: Inhibition of human 5-HT1B in presence of GTPgS
observation type: IC50

Param item = `CCNC(=O)C[C@@H]1N=C(c2ccc(Cl)cc2)c2cc(OC)ccc2-n2c(C)nnc21` ; retrieve measured IC50. > 100 µM

---

# Tested on: K562
# assay: cells
# assay setup: Homo sapiens, K562, 4 h
observation type: pIC50
Answers are plain numbers, as −log10 of the molar value.

Param item = `O=C(Nc1c[nH]nc1-c1nc2ccc(CN3CCOCC3)cc2[nH]1)NC1CC1` ; retrieve measured pIC50. 6.59

---

# system name: UniProtKB P35368
# assay: Inhibition of human adrenergic alpha 1B by intracellular Ca2+ fluorescence assay
observation type: IC50

Param item = CCNC(=O)C[C@@H]1N=C(c2ccc(Cl)cc2)c2cc(OC)ccc2-n2c(C)nnc21 [MOLIBRESIB] ; retrieve measured IC50. > 40 µM

---

# system name: Sodium channel protein type 5 subunit alpha (Homo sapiens, UniProt Q14524)
# Sequence (Q14524 whole entry): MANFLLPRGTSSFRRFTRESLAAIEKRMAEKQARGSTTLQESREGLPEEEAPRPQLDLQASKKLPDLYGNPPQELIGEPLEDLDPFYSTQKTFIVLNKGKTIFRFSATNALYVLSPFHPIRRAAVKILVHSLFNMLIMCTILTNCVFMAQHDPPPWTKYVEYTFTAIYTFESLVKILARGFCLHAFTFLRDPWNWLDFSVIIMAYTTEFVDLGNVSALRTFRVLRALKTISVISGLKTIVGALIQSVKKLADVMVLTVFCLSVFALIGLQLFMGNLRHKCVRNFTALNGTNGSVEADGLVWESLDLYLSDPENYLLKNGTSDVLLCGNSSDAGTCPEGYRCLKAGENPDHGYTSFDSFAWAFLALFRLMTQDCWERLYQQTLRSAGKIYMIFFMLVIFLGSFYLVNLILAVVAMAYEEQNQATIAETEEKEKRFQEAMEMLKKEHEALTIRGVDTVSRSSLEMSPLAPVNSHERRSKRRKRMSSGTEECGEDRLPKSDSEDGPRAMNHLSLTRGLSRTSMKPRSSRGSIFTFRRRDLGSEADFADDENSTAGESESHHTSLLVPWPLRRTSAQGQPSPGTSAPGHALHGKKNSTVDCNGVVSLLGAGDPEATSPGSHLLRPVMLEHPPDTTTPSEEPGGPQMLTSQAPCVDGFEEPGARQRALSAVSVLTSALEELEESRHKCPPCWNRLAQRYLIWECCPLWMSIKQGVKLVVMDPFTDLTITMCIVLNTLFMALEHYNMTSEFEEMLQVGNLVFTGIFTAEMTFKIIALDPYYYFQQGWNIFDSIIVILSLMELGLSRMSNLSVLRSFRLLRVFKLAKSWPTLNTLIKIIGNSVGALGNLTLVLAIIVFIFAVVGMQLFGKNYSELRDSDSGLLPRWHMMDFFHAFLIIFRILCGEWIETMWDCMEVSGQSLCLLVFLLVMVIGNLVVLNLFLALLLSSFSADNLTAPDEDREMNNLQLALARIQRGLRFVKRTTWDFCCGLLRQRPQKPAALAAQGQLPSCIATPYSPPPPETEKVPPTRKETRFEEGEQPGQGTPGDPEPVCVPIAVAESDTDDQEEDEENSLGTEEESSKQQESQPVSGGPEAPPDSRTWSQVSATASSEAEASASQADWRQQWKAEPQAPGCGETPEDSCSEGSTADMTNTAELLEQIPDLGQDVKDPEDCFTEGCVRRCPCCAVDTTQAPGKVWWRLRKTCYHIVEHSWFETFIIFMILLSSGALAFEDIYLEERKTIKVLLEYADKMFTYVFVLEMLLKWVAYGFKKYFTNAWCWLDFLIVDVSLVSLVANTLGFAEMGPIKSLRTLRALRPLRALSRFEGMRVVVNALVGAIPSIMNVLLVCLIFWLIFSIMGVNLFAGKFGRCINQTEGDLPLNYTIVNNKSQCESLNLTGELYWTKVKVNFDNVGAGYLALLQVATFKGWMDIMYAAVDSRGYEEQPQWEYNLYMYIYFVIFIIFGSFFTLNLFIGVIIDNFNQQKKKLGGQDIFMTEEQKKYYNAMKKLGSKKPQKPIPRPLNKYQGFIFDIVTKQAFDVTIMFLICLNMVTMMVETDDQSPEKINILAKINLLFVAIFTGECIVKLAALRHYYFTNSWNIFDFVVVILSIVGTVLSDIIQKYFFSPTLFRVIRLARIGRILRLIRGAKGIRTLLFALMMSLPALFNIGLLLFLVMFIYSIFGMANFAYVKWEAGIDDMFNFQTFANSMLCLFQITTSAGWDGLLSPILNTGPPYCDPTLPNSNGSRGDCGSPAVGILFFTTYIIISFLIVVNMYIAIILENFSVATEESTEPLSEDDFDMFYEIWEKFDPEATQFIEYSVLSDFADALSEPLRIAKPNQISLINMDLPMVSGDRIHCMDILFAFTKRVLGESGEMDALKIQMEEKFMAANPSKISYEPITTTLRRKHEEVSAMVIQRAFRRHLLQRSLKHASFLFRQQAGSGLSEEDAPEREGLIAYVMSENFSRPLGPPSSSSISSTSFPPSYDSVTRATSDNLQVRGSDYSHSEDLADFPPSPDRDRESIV
# assay: Inhibition of human NaV1.5 by blocker ionworks assay
observation type: IC50

Param item = `CCNC(=O)C[C@@H]1N=C(c2ccc(Cl)cc2)c2cc(OC)ccc2-n2c(C)nnc21` ; retrieve measured IC50. > 100 µM

---

# assay: AUC (0 to infinity) in NOD:SCID mouse at 30 mg/kg, ip administered for 36 hrs by LC-MS/MS analysis
# Assay type: ADME, organism-based
# assay setup: in vivo
observation type: AUC
Include the unit right after the number.

Param item = `CCNC(=O)C[C@@H]1N=C(c2ccc(Cl)cc2)c2cc(OC)ccc2-n2c(C)nnc21` ; retrieve measured AUC. 40.3 µM·h

---

# system name: Muscarinic acetylcholine receptor M2 (Homo sapiens, UniProt P08172)
# Sequence (P08172 whole entry): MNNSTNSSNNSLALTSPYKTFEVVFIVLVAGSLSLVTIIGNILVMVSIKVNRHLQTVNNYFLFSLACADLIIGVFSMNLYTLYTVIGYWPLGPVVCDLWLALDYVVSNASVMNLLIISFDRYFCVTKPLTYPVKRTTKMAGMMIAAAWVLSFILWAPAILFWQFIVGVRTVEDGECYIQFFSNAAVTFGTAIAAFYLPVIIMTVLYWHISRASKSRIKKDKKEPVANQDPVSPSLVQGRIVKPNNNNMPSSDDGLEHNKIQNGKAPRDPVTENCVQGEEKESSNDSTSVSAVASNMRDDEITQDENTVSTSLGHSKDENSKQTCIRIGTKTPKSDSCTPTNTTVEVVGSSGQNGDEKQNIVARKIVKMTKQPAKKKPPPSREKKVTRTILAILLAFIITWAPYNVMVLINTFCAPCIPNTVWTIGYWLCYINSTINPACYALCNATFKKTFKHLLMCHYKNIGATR
# assay: Inhibition of human M2 by intracellular Ca2+ fluorescence assay
observation type: IC50

Param item = `CCNC(=O)C[C@@H]1N=C(c2ccc(Cl)cc2)c2cc(OC)ccc2-n2c(C)nnc21` ; retrieve measured IC50. > 15.8 µM

---

# system name: Phosphatidylinositol 4,5-bisphosphate 3-kinase catalytic subunit gamma isoform (Homo sapiens, UniProt P48736)
# Sequence (P48736 whole entry, canonical isoform): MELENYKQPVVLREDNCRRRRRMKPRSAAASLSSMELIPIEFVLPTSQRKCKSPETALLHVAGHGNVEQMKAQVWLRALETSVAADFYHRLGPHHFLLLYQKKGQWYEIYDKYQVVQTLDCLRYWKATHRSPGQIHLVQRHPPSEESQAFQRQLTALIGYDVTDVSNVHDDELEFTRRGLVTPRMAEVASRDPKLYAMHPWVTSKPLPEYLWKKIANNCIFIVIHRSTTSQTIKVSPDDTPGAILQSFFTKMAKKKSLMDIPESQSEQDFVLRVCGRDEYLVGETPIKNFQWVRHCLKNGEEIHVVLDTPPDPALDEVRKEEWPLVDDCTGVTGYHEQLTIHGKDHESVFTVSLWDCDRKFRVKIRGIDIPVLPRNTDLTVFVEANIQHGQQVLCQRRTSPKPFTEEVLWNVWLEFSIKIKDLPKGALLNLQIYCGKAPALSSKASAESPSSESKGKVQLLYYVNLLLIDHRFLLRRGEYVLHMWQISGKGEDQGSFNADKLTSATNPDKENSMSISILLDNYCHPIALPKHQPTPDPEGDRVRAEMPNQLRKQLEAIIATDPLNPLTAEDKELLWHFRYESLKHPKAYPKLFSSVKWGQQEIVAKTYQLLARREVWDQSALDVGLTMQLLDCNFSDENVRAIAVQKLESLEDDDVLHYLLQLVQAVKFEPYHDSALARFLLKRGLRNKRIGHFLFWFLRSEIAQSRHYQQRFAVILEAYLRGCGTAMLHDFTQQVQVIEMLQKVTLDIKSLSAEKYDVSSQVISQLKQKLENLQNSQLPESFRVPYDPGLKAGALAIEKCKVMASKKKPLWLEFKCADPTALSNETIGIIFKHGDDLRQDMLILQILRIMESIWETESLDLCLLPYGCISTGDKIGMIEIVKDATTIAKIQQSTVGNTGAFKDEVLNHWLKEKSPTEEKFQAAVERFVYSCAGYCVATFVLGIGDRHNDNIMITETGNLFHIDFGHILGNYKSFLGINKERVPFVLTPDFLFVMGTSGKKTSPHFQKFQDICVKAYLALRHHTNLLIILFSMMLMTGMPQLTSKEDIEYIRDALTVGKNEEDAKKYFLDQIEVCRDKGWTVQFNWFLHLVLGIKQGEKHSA
# assay: Inhibition of His6-tagged human PI3K-gamma […] incubated for 1 hr by TR-FRET assay
pIC50: −log10 of the molar value.
observation type: pIC50

Param item = `CCNC(=O)C[C@@H]1N=C(c2ccc(Cl)cc2)c2cc(OC)ccc2-n2c(C)nnc21` ; retrieve measured pIC50. < 4.60

---

# system name: Solute carrier organic anion transporter family member 1B1 (Homo sapiens)
# Sequence (Q9Y6L6 whole entry): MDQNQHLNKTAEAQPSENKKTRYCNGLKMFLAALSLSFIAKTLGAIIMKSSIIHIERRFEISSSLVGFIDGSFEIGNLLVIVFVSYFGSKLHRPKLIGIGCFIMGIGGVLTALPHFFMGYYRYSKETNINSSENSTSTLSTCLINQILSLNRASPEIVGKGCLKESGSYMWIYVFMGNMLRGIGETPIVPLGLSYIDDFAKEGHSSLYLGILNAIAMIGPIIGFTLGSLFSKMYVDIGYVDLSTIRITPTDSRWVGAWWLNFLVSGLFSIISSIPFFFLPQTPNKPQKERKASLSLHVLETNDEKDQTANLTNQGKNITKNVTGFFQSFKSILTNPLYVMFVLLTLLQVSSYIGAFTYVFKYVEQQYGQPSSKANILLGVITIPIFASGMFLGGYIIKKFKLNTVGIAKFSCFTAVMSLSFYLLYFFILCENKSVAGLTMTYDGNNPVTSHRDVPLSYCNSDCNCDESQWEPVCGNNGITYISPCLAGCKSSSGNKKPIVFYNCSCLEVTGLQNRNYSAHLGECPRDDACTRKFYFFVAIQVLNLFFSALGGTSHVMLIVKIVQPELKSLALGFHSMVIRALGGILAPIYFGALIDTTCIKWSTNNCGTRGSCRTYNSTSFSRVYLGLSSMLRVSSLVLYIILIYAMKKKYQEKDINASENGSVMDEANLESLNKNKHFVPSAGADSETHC
observation type: IC50 (µM)
Numbers only, in µM.

Reported IC50 for Solute carrier organic anion transporter family member 1B1 (Homo sapiens), given `CCNC(=O)C[C@@H]1N=C(c2ccc(Cl)cc2)c2cc(OC)ccc2-n2c(C)nnc21` ? 12.6

---

# assay: Cmax in NOD:SCID mouse at 30 mg/kg, ip administered for 24 hrs by LC-MS/MS analysis
# Format: ADME, organism-based
# assay setup: in vivo
observation type: Cmax (nM)
Answers are plain numbers, in nM.

Param item = `Cc1sc2c(c1C)C(c1ccc(Cl)cc1)=N[C@@H](CC(=O)OC(C)(C)C)c1nnc(C)n1-2` ; retrieve measured Cmax. 840

---

# system name: Histamine H1 receptor (Homo sapiens, UniProt P35367)
# assay: Inhibition of human HRH1 by intracellular Ca2+ luminescence assay
observation type: IC50

Reported IC50 for Histamine H1 receptor (Homo sapiens, UniProt P35367), given CCNC(=O)C[C@@H]1N=C(c2ccc(Cl)cc2)c2cc(OC)ccc2-n2c(C)nnc21 [MOLIBRESIB] ? > 40 µM

---

# assay: in vivo
# assay setup: NOD:SCID, mouse, ip, 30 mg/kg
observation type: half-life at 36 h (h)
Numbers only, in h.

Param item = CCNC(=O)C[C@@H]1N=C(c2ccc(Cl)cc2)c2cc(OC)ccc2-n2c(C)nnc21 [MOLIBRESIB] ; retrieve measured half-life at 36 h. 1.6

---

# system name: Voltage-gated potassium channel, IKs; KCNQ1(Kv7.1)/KCNE1(MinK) (Homo sapiens, UniProt P15382+P51787)
# Sequence (P51787 whole entry): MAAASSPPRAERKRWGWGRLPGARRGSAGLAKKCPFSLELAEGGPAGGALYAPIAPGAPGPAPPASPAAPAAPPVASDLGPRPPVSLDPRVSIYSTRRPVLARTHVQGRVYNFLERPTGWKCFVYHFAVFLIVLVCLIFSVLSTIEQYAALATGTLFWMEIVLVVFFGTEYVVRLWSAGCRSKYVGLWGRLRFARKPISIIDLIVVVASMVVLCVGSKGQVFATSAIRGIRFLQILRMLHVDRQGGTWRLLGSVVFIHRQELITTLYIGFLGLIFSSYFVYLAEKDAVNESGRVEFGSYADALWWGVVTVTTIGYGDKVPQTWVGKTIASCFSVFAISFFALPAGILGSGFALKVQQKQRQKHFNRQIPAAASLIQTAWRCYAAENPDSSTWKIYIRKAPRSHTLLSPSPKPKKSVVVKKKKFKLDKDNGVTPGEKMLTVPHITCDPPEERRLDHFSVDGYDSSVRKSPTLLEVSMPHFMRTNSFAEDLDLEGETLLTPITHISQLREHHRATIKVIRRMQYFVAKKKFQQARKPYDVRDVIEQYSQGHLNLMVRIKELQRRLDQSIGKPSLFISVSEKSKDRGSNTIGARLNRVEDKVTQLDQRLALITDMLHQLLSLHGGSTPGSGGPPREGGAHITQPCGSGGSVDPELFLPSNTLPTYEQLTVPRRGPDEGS
# assay: Inhibition of human KCNQ1/KCNE1 by blocker ionworks assay
pIC50: −log10 of the molar value.
observation type: pIC50

Param item = CCNC(=O)C[C@@H]1N=C(c2ccc(Cl)cc2)c2cc(OC)ccc2-n2c(C)nnc21 [MOLIBRESIB] ; retrieve measured pIC50. < 4.60
